# Tested on: hLTBP1-/hLTBP3-proTGFβ1 vs hGARP-/hLRRC33-proTGFβ1 complexes
# Assay Comment: Solution equilibrium titration: relative affinity (bias) LTBP complexes vs cell-associated complexes
# Type: binding, human
# Experimental Parameters: MSD-SET, ratio of average KD cell-associated / matrix-associated
Property Label: (H) G/D (fold bias) (fold)

molecule="Ab19: monoclonal antibody; VH SEQ ID NO: 250, VL SEQ ID NO: 241 (antibody, V domains shown) VH: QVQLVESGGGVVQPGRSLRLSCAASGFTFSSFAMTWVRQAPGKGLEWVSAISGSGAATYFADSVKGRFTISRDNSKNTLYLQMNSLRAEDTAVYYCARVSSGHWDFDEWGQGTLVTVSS VL: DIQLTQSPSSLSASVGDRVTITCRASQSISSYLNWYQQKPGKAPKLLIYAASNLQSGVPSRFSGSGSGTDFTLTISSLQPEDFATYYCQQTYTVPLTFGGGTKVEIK" property_label="(H) G/D (fold bias)" result_value=1.68

All values here come from patent US11130803B2.
